- test_target: Tubulin
- procedure_text: Binding affinity to tubulin (unknown origin) assessed as dissociation constant
outcome_measure: pKd
Value format note: pKd is -log10 of concentration (mol/L); just state the number.

The reported pKd of the molecule `COC1=CC(=O)C[C@@H](C)[C@]12Oc1c(Cl)c(OC)cc(OC)c1C2=O` was 3.52

----------
- procedure_text: Inhibition of full-length human MEK
outcome_measure: IC50 (µM)
Reply with just the number (in µM).

The reported IC50 of the molecule `COc1cc(O)c2c(c1)CCC[C@H](O)[C@H](O)C(=O)/C=C\C[C@H](C)OC2=O` was 4

----------
- System: HeLa
- procedure_text: Antimitotic activity against human HeLa cells
- Format: functional, cell-based
outcome_measure: pIC50
Value format note: pIC50 is -log10 of concentration (mol/L); just state the number.

The reported pIC50 of the molecule `COC1=CC(=O)C[C@@H](C)[C@]12Oc1c(Cl)c(OC)cc(OC)c1C2=O` was 4.60
